Assay: Pharmacokinetic profile AUC was evaluated in rats
Assay type: ADME, organism-based
Set-up: concentration or dose not given beside the values
Conditions: rat, in vivo
outcomeMeasure: AUC (ng·h/mL)

chemicalStructure | unitAbbrev | AUC
CCCCN(CCCC)C(=O)CN1C[C@H](c2ccc3c(c2)OCO3)[C@@H](C(=O)O)[C@@H]1CCc1ccccn1 | ng·h/mL | 780
C/C=C\C(C)(C)C[C@H]1[C@H](C(=O)O)[C@@H](c2cc(OC)c3c(c2)OCO3)CN1CC(=O)N(CCCC)CCCC | ng·h/mL | 2090
CCCCN(CCCC)C(=O)CN1C[C@H](c2ccc3c(c2)OCO3)[C@@H](C(=O)O)[C@@H]1CCN1CCCC1=O | ng·h/mL | 9
CCCCN(CCCC)C(=O)CN1C[C@H](c2cc(OC)c3c(c2)OCO3)[C@@H](C(=O)O)[C@@H]1CC(C)(C)CCC | ng·h/mL | 3270

I: C/C=C\C(C)(C)C[C@H]1[C@H](C(=O)O)[C@@H](c2ccc3c(c2)OCO3)CN1CC(=O)N(CCCC)CCCC
II: CCCCN(CCCC)C(=O)CN1C[C@H](c2ccc3c(c2)OCO3)[C@@H](C(=O)O)[C@@H]1CC(C)(C)CCC
Lower AUC: I or II ? Write down the label of the entry you select.
I
(I: 2620 ng·h/mL, II: 7060 ng·h/mL)

====

Biological target: Endothelin-1 receptor (Rattus norvegicus)
Sequence (P26684 whole entry): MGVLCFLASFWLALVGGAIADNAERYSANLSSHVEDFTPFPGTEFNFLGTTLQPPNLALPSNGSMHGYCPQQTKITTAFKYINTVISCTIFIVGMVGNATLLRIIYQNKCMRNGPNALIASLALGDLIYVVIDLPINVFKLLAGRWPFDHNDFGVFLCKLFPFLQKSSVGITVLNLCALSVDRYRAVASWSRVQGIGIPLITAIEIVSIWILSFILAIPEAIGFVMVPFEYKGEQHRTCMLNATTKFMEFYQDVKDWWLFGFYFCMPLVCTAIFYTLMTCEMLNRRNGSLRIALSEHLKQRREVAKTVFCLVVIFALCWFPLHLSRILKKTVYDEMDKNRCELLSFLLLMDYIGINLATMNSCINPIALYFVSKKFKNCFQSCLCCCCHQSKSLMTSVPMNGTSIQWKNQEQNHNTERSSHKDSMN
Experiment: Binding affinity for endothelin A receptor by measuring its ability to displace [125I]ET1 from prolactin secreting rat pituitary cells(MMQ)
outcomeMeasure: IC50 (nM)

molecule | unitAbbrev | IC50
CCCCN(CCCC)C(=O)CN1C[C@H](c2ccc3c(c2)OCO3)[C@@H](C(=O)O)[C@@H]1CC(C)(C)C1OCCO1 | nM | 1.4

a: CCCCN(CCCC)C(=O)CN1C[C@H](c2ccc3c(c2)OCO3)[C@@H](C(=O)O)[C@@H]1CCn1ccccc1=O
b: CCCCN(CCCC)C(=O)CN1C[C@H](c2ccc3c(c2)OCO3)[C@@H](C(=O)O)[C@@H]1CCC=C1CC1
Returns: the argument ( a or b ) having the larger IC50. Select an item and report its label.
a

a: CCCCN(CCCC)C(=O)CN1C[C@H](c2ccc3c(c2)OCO3)[C@@H](C(=O)O)[C@@H]1CCc1nc(C)c(C)o1
b: CCCCN(CCCC)C(=O)CN1C[C@H](c2ccc3c(c2)OCO3)[C@@H](C(=O)O)[C@@H]1CCc1ncco1
c: CCCCN(CCCC)C(=O)CN1C[C@H](c2ccc3c(c2)OCO3)[C@@H](C(=O)O)[C@@H]1CCC(CC)CC
Rank order required: IC50, descending. Please write the labels in the order that was asked for.
c, b, a
(c: 22 nM, b: 2.4 nM, a: 1.05 nM)

====

Sequence of the target: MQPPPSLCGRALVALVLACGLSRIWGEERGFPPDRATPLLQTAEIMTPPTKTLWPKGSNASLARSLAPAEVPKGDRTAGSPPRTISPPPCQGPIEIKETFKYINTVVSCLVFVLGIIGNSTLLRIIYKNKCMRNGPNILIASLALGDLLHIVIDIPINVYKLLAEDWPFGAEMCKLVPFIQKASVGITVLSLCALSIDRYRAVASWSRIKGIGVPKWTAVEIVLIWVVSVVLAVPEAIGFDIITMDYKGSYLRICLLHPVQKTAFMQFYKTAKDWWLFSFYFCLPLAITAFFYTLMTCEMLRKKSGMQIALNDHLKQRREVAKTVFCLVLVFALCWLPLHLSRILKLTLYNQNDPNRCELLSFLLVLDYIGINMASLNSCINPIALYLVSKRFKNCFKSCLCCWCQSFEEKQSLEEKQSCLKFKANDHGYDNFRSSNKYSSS
outcomeMeasure: Ki (nM)
Kindly answer with a numeric value in nM, unit omitted.

So what does the record say about Ki for COc1ccc(C(=O)/C(Cc2cc(OC)c(OC)c(OC)c2)=C(\C(=O)[O-])c2ccc3c(c2)OCO3)cc1.[Na+] [PD-156707 SODIUM] ?
139

====

Target: Endothelin-1 receptor (Rattus norvegicus, UniProt P26684)
Assay: Binding affinity for endothelin A receptor by measuring its ability to displace [125I]ET1 from prolactin secreting rat pituitary cells(MMQ)
pIC50: −log10 of the molar value.
outcomeMeasure: pIC50

chemicalStructure | outcomeMeasure | measuredNumber
C/C=C(\C)CC[C@H]1[C@H](C(=O)O)[C@@H](c2ccc3c(c2)OCO3)CN1CC(=O)N(CCCC)CCCC | pIC50 | 8.48

a: CCCCN(CCCC)C(=O)CN1C[C@H](c2ccc3c(c2)OCO3)[C@@H](C(=O)O)[C@@H]1CCc1ccoc1
b: CCCCN(CCCC)C(=O)CN1C[C@H](c2ccc3c(c2)OCO3)[C@@H](C(=O)O)[C@@H]1CC/C=C(/C)CC
// select label with min value of measured pIC50 from [ a , b ] Reply with the label of the item you choose.
a
(a: 8.66, b: 9.07)

====

Test: Pharmacokinetic profile-half life was evaluated in rats upon oral administration
Format: ADME, organism-based
Details: rat, in vivo
outcomeMeasure: half-life (h)

chemicalStructure | half-life / h
CCCCN(CCCC)C(=O)CN1C[C@H](c2ccc3c(c2)OCO3)[C@@H](C(=O)O)[C@@H]1CC(C)(C)CCC | 3.85
CCCCN(CCCC)C(=O)CN1C[C@H](c2ccc3c(c2)OCO3)[C@@H](C(=O)O)[C@@H]1CCc1ccccn1 | 8.8

A: C/C=C\C(C)(C)C[C@H]1[C@H](C(=O)O)[C@@H](c2ccc3c(c2)OCO3)CN1CC(=O)N(CCCC)CCCC
B: CCCCN(CCCC)C(=O)CN1C[C@H](c2cc(OC)c3c(c2)OCO3)[C@@H](C(=O)O)[C@@H]1CC(C)(C)CCC
Could you tell me which of these two has the smaller half-life figure? First: A Second: B # answer = label of selected item
B
(B: 2.5 h, A: 3.58 h)

====

Molecular target: Endothelin-1 receptor (Homo sapiens)
Sequence (P25101 whole entry): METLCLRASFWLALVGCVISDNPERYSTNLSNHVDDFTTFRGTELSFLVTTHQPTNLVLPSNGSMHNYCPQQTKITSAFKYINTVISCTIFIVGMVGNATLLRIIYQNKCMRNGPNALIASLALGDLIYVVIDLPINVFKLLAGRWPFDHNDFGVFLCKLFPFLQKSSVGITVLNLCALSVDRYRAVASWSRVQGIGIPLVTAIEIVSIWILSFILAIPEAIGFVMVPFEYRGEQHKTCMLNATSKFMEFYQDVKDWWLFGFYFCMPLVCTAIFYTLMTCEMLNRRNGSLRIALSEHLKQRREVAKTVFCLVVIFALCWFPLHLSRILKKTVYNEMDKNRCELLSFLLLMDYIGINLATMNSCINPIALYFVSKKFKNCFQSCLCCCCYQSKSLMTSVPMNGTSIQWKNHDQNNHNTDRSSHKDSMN
Assay: Tested for binding affinity for human Endothelin A receptor by measuring its ability to displace [125I]ET1 from chinese hamster ovary cells(CHO)
Type: cell-based
outcomeMeasure: IC50 (nM)

chemicalStructure | measuredNumber
C/C=C\C(C)(C)C[C@H]1[C@H](C(=O)O)[C@@H](c2cc(OC)c3c(c2)OCO3)CN1CC(=O)N(CCCC)CCCC | 0.29
CCCCN(CCCC)C(=O)CN1C[C@H](c2ccc3c(c2)OCO3)[C@@H](C(=O)O)[C@@H]1CCc1ccccn1 | 0.29
CCCCN(CCCC)C(=O)CN1C[C@H](c2ccc3c(c2)OCO3)[C@@H](C(=O)O)[C@@H]1CCn1cccn1 | 1.06

a: CCCCN(CCCC)C(=O)CN1C[C@H](c2ccc3c(c2)OCO3)[C@@H](C(=O)O)[C@@H]1CC(C)(C)CCC
b: C/C=C\C(C)(C)C[C@H]1[C@H](C(=O)O)[C@@H](c2ccc3c(c2)OCO3)CN1CC(=O)N(CCCC)CCCC
c: CCCCN(CCCC)C(=O)CN1C[C@H](c2ccc3c(c2)OCO3)[C@@H](C(=O)O)[C@@H]1CCN1CCCC1=O
Place the items in sequence of falling IC50. # format: label list in the order the request specifies
b, a, c
(b: 1 nM, a: 0.29 nM, c: 0.17 nM)
